# SYSTEM_NAME: OCT1 (Homo sapiens, UniProt O15245)
# Sequence (O15245 1-554): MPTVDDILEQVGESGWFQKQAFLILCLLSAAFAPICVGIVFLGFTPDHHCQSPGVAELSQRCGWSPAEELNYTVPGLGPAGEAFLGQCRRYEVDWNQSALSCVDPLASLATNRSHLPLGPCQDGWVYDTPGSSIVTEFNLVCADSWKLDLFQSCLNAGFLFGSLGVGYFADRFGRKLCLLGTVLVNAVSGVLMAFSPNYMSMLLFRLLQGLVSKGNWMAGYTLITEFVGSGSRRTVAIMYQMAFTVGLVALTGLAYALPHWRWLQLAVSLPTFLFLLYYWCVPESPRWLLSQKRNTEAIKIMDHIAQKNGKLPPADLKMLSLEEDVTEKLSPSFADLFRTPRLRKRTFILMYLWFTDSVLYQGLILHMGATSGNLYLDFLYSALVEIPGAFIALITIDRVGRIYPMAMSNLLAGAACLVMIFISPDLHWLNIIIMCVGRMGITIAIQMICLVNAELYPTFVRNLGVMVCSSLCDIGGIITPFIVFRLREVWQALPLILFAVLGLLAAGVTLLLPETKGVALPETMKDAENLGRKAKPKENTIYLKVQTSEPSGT
# PROCEDURE_TEXT: Inhibition of model substrate uptake in OCT1-overexpressing HEK293 cells
# Assay type: cell-based
# Parameters: expressed in transfected cells; host or cells: HEK293
# TEST_CONDITIONS: IC50, OCT1, Table S5; 2 μM ASP+ or ethambutol as model substrate, 5 min
OBSERVED_PROPERTY: IC50 (µM)
Give just the numeric value; µM need not be written.

Query: Please give the documented IC50 of CCN(CC)CC#CCOC(=O)[C@](O)(c1ccccc1)C1CCCCC1 [(R)-Oxybutynine]
Result: 171

More entries:
Query: Please give the documented IC50 of CCN(CC)CC#CCOC(=O)[C@@](O)(c1ccccc1)C1CCCCC1 [(S)-Oxybutynine]
Result: 141

* * *

# SYSTEM_NAME: OCT3 (Homo sapiens, UniProt O75751)
# Construct: expressed in transfected cells; host or cells: HEK293
# Sequence (O75751 1-556): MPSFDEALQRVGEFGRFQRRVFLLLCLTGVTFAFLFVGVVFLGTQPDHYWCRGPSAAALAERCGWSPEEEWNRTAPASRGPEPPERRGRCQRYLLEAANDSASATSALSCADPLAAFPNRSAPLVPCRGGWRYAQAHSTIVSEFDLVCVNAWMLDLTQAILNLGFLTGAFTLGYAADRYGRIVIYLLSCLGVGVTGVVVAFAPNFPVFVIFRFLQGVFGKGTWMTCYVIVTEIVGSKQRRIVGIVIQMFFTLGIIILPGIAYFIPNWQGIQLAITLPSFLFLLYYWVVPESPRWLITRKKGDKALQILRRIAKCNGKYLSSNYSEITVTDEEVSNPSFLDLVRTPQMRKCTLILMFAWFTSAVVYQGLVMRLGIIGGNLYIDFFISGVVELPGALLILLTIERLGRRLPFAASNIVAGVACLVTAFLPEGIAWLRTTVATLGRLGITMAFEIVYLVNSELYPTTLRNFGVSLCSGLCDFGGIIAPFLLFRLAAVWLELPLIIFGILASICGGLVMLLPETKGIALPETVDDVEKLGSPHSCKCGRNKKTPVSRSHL
# PROCEDURE_TEXT: Inhibition of model substrate uptake in OCT3-overexpressing HEK293 cells
# Assay type: cell-based
# TEST_CONDITIONS: HEK293, OCT3; 20 μM inhibitor, 2 μM ASP+, 5 min; read-out: ASP+ inhibition [%]
The entries below come with measured inhibition at 20 µM values attached.
Give just the numeric value; % need not be written.

Query: Write down the reported inhibition at 20 µM (system: OCT3 (Homo sapiens, UniProt O75751)) of C=C[C@H]1C[N@@]2CC[C@H]1C[C@@H]2[C@@H](O)c1ccnc2ccc(OC)cc12
Result: 38.9

Query: Write down the reported inhibition at 20 µM (system: OCT3 (Homo sapiens, UniProt O75751)) of COc1ccc([C@@H](CN(C)C)C2(O)CCCCC2)cc1 [(S)-Venlafaxine]
Result: -11.4

Query: Write down the reported inhibition at 20 µM (system: OCT3 (Homo sapiens, UniProt O75751)) of CN(C)CCc1c[nH]c2ccc(C[C@H]3COC(=O)N3)cc12 [(S)-Zolmitriptan]
Result: 38.5

Query: Write down the reported inhibition at 20 µM (system: OCT3 (Homo sapiens, UniProt O75751)) of CCN1CCC[C@@H]1CNC(=O)c1cc(S(=O)(=O)CC)c(N)cc1OC [(R)-Amisulpride]
Result: 37.9

Query: Write down the reported inhibition at 20 µM (system: OCT3 (Homo sapiens, UniProt O75751)) of CC(C)Cc1ccc([C@@H](C)C(=O)O)cc1 [(R)-Ibuprofen]
Result: 12.1

Query: Write down the reported inhibition at 20 µM (system: OCT3 (Homo sapiens, UniProt O75751)) of CCCN[C@H]1CCc2nc(N)sc2C1 [(S)-Pramipexole]
Result: 6.1

Query: Write down the reported inhibition at 20 µM (system: OCT3 (Homo sapiens, UniProt O75751)) of Cc1cccc(C)c1OC[C@H](C)N [(S)-Mexiletine]
Result: -6.6

Query: Write down the reported inhibition at 20 µM (system: OCT3 (Homo sapiens, UniProt O75751)) of CCCN[C@@H]1CCc2nc(N)sc2C1 [(R)-Pramipexole]
Result: 5.3

More entries:
Query: Write down the reported inhibition at 20 µM (system: OCT3 (Homo sapiens, UniProt O75751)) of CC(C)(C)NC[C@H](O)COc1nsnc1N1CCOCC1 [(S)-Timolol]
Result: 27.8

Query: Write down the reported inhibition at 20 µM (system: OCT3 (Homo sapiens, UniProt O75751)) of CN(C)CCO[C@](C)(c1ccccc1)c1ccccn1 [(R)-Doxylamine]
Result: 12.2

* * *

# SYSTEM_NAME: OCT1 (Homo sapiens)
# Sequence (O15245 1-554): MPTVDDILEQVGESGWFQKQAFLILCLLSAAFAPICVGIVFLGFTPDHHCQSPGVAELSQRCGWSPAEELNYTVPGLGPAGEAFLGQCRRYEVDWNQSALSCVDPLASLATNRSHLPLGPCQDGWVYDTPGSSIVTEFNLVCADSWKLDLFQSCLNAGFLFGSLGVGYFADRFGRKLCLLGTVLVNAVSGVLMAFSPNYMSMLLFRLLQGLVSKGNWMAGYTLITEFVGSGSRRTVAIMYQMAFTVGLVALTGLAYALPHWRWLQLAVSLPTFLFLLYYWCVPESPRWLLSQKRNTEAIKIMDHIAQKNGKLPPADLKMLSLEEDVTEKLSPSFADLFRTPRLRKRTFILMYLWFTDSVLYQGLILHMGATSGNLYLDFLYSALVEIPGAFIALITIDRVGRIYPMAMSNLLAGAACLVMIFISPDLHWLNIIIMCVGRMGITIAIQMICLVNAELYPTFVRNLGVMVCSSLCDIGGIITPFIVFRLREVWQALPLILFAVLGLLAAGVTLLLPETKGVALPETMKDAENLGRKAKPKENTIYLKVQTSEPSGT
# PROCEDURE_TEXT: Concentration-dependent uptake of model substrates, OCT1-overexpressing HEK293 cells
# Type: in vitro ADME
# Set-up: expressed in transfected cells; host or cells: HEK293
# TEST_CONDITIONS: 2 min uptake, this study, read-out: Km ± SEM
OBSERVED_PROPERTY: Km (µM)
Give just the numeric value; µM need not be written.

Query: Please give the documented Km of CN(C)c1ccc(C=Cc2cc[n+](C)cc2)cc1
Result: 11.7

* * *

# SYSTEM_NAME: OCT3 (Homo sapiens, UniProt O75751)
# Construct: expressed in transfected cells; host or cells: HEK293
# PROCEDURE_TEXT: Inhibition of model substrate uptake in OCT3-overexpressing HEK293 cells
# Type: cell-based
# TEST_CONDITIONS: HEK293, OCT3; 20 μM inhibitor, 2 μM ASP+, 5 min; read-out: ASP+ inhibition [%]
OBSERVED_PROPERTY: inhibition at 20 µM (%)
Give just the numeric value; % need not be written.

Query: Write down the reported inhibition at 20 µM (system: OCT3 (Homo sapiens, UniProt O75751)) of CNC[C@@H](O)c1cccc(O)c1 [(S)-Phenylephrine]
Result: 2.7

Query: Write down the reported inhibition at 20 µM (system: OCT3 (Homo sapiens, UniProt O75751)) of CCCCN1CCCC[C@H]1C(=O)Nc1c(C)cccc1C [(S)-Bupivacaine]
Result: 24.3

Query: Write down the reported inhibition at 20 µM (system: OCT3 (Homo sapiens, UniProt O75751)) of COc1ccc(CCN(C)CCC[C@](C#N)(c2ccc(OC)c(OC)c2)C(C)C)cc1OC [(R)-Verapamil]
Result: 8.2

Query: Write down the reported inhibition at 20 µM (system: OCT3 (Homo sapiens, UniProt O75751)) of COc1ccccc1OCCNC[C@H](O)COc1cccc2[nH]c3ccccc3c12 [(S)-Carvedilol]
Result: 16.3

Query: Write down the reported inhibition at 20 µM (system: OCT3 (Homo sapiens, UniProt O75751)) of CN(C)CCC[C@@]1(c2ccc(F)cc2)OCc2cc(C#N)ccc21 [(S)-Citalopram]
Result: 10.9

More entries:
Query: Write down the reported inhibition at 20 µM (system: OCT3 (Homo sapiens, UniProt O75751)) of N[C@@H]1CONC1=O [(R)-Cycloserine]
Result: 17.8

Query: Write down the reported inhibition at 20 µM (system: OCT3 (Homo sapiens, UniProt O75751)) of CN(C)CCC[C@]1(c2ccc(F)cc2)OCc2cc(C#N)ccc21 [(R)-Citalopram]
Result: 4.5

Query: Write down the reported inhibition at 20 µM (system: OCT3 (Homo sapiens, UniProt O75751)) of CCCCN1CCCC[C@@H]1C(=O)Nc1c(C)cccc1C [(R)-Bupivacaine]
Result: 31.4

Query: Write down the reported inhibition at 20 µM (system: OCT3 (Homo sapiens, UniProt O75751)) of COc1ccc([C@H](CN(C)C)C2(O)CCCCC2)cc1 [(R)-Venlafaxine]
Result: -2.8
